protocolNotes: Plasma protein binding in rat
Assay type: ADME, cell-free
assaySetup: read-out: PPB (converted)
experimentalEndpoint: fraction unbound

                             chemicalstring  numericresult
0  CC(C)NC[C@H](Cc1ccc(Cl)cc1)C(=O)N1CCN(c2ncnc3c2[C@H](C)SC3)CC1            0.3

====

protocolNotes: Plasma concentration in rat at 50 mg/kg, po
Assay type: ADME, organism-based
Design: dose 50 mg/kg, route oral
experimentalEndpoint: AUC (ng·h/mL)

                             chemicalstring  numericresult
0  CC(C)NC[C@H](Cc1ccc(Cl)cc1)C(=O)N1CCN(c2ncnc3c2[C@H](C)SC3)CC1          56200

====

systemName: RAC-alpha serine/threonine-protein kinase (Homo sapiens, UniProt P31749)
Sequence (P31749 whole entry): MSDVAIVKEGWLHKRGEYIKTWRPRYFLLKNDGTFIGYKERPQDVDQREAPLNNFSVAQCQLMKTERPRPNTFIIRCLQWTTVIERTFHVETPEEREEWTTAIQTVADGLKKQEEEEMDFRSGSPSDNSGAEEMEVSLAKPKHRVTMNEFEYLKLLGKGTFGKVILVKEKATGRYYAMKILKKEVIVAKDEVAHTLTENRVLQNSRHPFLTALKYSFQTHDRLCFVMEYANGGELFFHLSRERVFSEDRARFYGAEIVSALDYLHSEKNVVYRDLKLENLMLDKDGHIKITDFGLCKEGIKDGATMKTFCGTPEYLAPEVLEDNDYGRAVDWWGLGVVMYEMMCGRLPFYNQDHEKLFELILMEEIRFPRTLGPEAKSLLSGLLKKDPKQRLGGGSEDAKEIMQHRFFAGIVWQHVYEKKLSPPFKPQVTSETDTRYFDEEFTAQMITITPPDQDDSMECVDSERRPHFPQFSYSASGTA
protocolNotes: Inhibition of Akt in human LNCaP cell assessed as inhibition of PRAS40 phosphorylation
Format: cell-based
IC50 less than 200 nM is Criterion met; IC50 greater than or equal to 200 nM is Criterion not met.

                                    compound      assignedlabel
 0  C[C@@H]1OCc2ncnc(N3CCN(C(=O)C(Cc4ccc(Cl)c(F)c4)CC(C)(C)N)CC3)c21 (some centres not stated)  Criterion not met
 1  CC(C)NC[C@H](Cc1ccc(Cl)cc1)C(=O)N1CCN(c2ncnc3c2[C@H](C)OC3)CC1      Criterion met
 2  C[C@@H]1SCc2ncnc(N3CCN(C(=O)[C@H](N)Cc4c[nH]c5ccccc45)CC3)c21  Criterion not met
 3  Cc1c[nH]c2ncnc(N3CCN(C(=O)[C@H](N)Cc4ccc(F)cc4)CC3)c12      Criterion met
 4  CC(C)NC[C@H](Cc1ccc(Cl)cc1)C(=O)N1CCN(c2ncnc3c2[C@H](C)SC3)CC1      Criterion met
 5  Cc1ccc(CC(CNC(C)C)C(=O)N2CCN(c3ncnc4c3[C@H](C)OC4)CC2)cc1 (some centres not stated)  Criterion not met
 6  C[C@@H]1SCc2ncnc(N3CCN(C(=O)C(Cc4ccc(Cl)c(F)c4)CC4(N)CC4)CC3)c21 (some centres not stated)  Criterion not met
 7  C[C@@H]1SCc2ncnc(N3CCN(C(=O)C(Cc4ccc(Cl)cc4)C4(N)CC4)CC3)c21 (some centres not stated)  Criterion not met
 8  C[C@@H]1OCc2ncnc(N3CCN(C(=O)[C@H](N)Cc4ccc(Cl)cc4)CC3)c21  Criterion not met
 9  C[C@@H]1SCc2ncnc(N3CCN(C(=O)[C@H](N)Cc4ccc(Cl)cc4)CC3)c21      Criterion met
10  CC(C)NCC(Cc1ccc(Cl)c(F)c1)C(=O)N1CCN(c2ncnc3c2[C@H](C)OC3)CC1 (some centres not stated)  Criterion not met
11  C[C@@H]1SCc2ncnc(N3CCN(C(=O)C(Cc4ccc(Cl)cc4)CN4CCCC4)CC3)c21 (some centres not stated)      Criterion met
12  CC(C)NCC(Cc1ccc(Cl)cc1)C(=O)N1CCN(c2ncnc3c2[C@H](C)SC3)CC1 (some centres not stated)      Criterion met
13  N[C@H](Cc1ccc(Cl)cc1)C(=O)N1CCN(c2ncnc3c2CSC3)CC1  Criterion not met
14  CC1SCc2ncnc(N3CCN(C(=O)[C@H](N)Cc4ccc(Cl)cc4)CC3)c21 (some centres not stated)  Criterion not met
15  C[C@@H]1SCc2ncnc(N3CCN(C(=O)[C@H](N)Cc4ccc(F)cc4)CC3)c21  Criterion not met
16  C[C@@H]1SCc2ncnc(N3CCN(C(=O)[C@H](N)Cc4ccc(F)c(F)c4)CC3)c21  Criterion not met

====

protocolNotes: Clearance in rat at 5 mg/kg, iv
Type: ADME, organism-based
Set-up: dose 5 mg/kg, route intravenous
assaySetup: in vivo
experimentalEndpoint: clearance (mL/min/kg)

In [3]: df
Out[3]:
                             chemicalstring  numericresult
0  CC(C)NC[C@H](Cc1ccc(Cl)cc1)C(=O)N1CCN(c2ncnc3c2[C@H](C)SC3)CC1             94

====

systemName: RAC-alpha serine/threonine-protein kinase (Homo sapiens)
protocolNotes: Inhibition of Akt1
experimentalEndpoint: IC50

In [3]: df
Out[3]:
                                    molecule  result
 0  CC(C)NCC(Cc1ccc(F)c(F)c1)C(=O)N1CCN(c2ncnc3c2[C@H](C)SC3)CC1 (stereo not given in full)   10 nM
 1  C[C@@H]1OCc2ncnc(N3CCN(C(=O)[C@H](N)Cc4ccc(Cl)cc4)CC3)c21    7 nM
 2  C[C@@H]1SCc2ncnc(N3CCN(C(=O)[C@H](N)Cc4ccc(Cl)c(F)c4)CC3)c21    2 nM
 3  Cc1ccc(CC(CNC(C)C)C(=O)N2CCN(c3ncnc4c3[C@H](C)SC4)CC2)cc1 (stereo not given in full)    3 nM
 4  C[C@@H]1SCc2ncnc(N3CCN(C(=O)[C@H](N)Cc4ccc(Cl)cc4)CC3)c21    1 nM
 5  CC(C)NC[C@H](Cc1ccc(Cl)cc1)C(=O)N1CCN(c2ncnc3c2[C@H](C)OC3)CC1    3 nM
 6  C[C@@H]1SCc2ncnc(N3CCN(C(=O)[C@H](N)Cc4ccc(F)c(F)c4)CC3)c21    4 nM
 7  C[C@@H]1SCc2ncnc(N3CCN(C(=O)C(Cc4ccc(Cl)c(F)c4)CC4(N)CC4)CC3)c21 (stereo not given in full)    3 nM
 8  N[C@H](Cc1ccc(Cl)cc1)C(=O)N1CCN(c2ncnc3c2CSC3)CC1   22 nM
 9  CC(C)NCC(Cc1ccc(Cl)c(F)c1)C(=O)N1CCN(c2ncnc3c2[C@H](C)OC3)CC1 (stereo not given in full)    6 nM
10  C[C@@H]1SCc2ncnc(N3CCN(C(=O)C(Cc4ccc(Cl)c(F)c4)CC(C)(C)N)CC3)c21 (stereo not given in full)    7 nM
11  C[C@@H]1SCc2ncnc(N3CCN(C(=O)C(Cc4ccc(Cl)cc4)CN4CCCC4)CC3)c21 (stereo not given in full)    3 nM
12  C[C@@H]1SCc2ncnc(N3CCN(C(=O)C(Cc4ccc(Cl)cc4)CC(C)(C)N)CC3)c21 (stereo not given in full)    6 nM
13  CC1SCc2ncnc(N3CCN(C(=O)[C@H](N)Cc4ccc(Cl)cc4)CC3)c21 (stereo not given in full)    4 nM
14  C[C@@H]1SCc2ncnc(N3CCN(C(=O)[C@H](N)Cc4ccc(F)cc4)CC3)c21   11 nM
15  CCC1SCc2ncnc(N3CCN(C(=O)[C@H](N)Cc4ccc(Cl)cc4)CC3)c21 (stereo not given in full)    7 nM
16  Cc1ccc(CC(CNC(C)C)C(=O)N2CCN(c3ncnc4c3[C@H](C)OC4)CC2)cc1 (stereo not given in full)   16 nM
17  CC(C)NC[C@@H](Cc1ccc(Cl)cc1)C(=O)N1CCN(c2ncnc3c2[C@H](C)SC3)CC1  127 nM
18  C[C@@H]1OCc2ncnc(N3CCN(C(=O)C(Cc4ccc(Cl)c(F)c4)CC(C)(C)N)CC3)c21 (stereo not given in full)   18 nM
19  CC(C)NCC(Cc1ccc(Cl)c(F)c1)C(=O)N1CCN(c2ncnc3c2[C@H](C)SC3)CC1 (stereo not given in full)    2 nM
20  C[C@H]1SCc2ncnc(N3CCN(C(=O)[C@H](N)Cc4ccc(Cl)cc4)CC3)c21  260 nM
21  C[C@@H]1SCc2ncnc(N3CCN(C(=O)C(Cc4ccc(Cl)cc4)C4(N)CC4)CC3)c21 (stereo not given in full)   42 nM
22  CC(C)NCC(Cc1ccc(Cl)cc1)C(=O)N1CCN(c2ncnc3c2[C@H](C)SC3)CC1 (stereo not given in full)    3 nM
23  N[C@H](Cc1ccc(Cl)cc1)C(=O)N1CCN(c2ncnc3c2CS(=O)(=O)C3)CC1   52 nM
24  CC(C)NC[C@H](Cc1ccc(Cl)cc1)C(=O)N1CCN(c2ncnc3c2[C@H](C)SC3)CC1    1 nM

====

systemName: RAC-alpha serine/threonine-protein kinase (Homo sapiens, UniProt P31749)
protocolNotes: Inhibition of Akt in human LNCaP cell assessed as inhibition of PRAS40 phosphorylation
Assay type: cell-based
We begin with a simple list: items and their reported IC50.
experimentalEndpoint: IC50 (nM)

                                   compound  experimentalendpoint  unitstext  numericresult
0  CC(C)NCC(Cc1ccc(Cl)c(F)c1)C(=O)N1CCN(c2ncnc3c2[C@H](C)SC3)CC1 (some centres undefined)                  IC50         nM             92
1  C[C@@H]1SCc2ncnc(N3CCN(C(=O)[C@H](N)Cc4ccc(Cl)c(F)c4)CC3)c21                  IC50         nM            176
2  C[C@H]1SCc2ncnc(N3CCN(C(=O)[C@H](N)Cc4ccc(Cl)cc4)CC3)c21                  IC50         nM          18500
3  Cc1ccc(CC(CNC(C)C)C(=O)N2CCN(c3ncnc4c3[C@H](C)SC4)CC2)cc1 (some centres undefined)                  IC50         nM            216
4  CCC1SCc2ncnc(N3CCN(C(=O)[C@H](N)Cc4ccc(Cl)cc4)CC3)c21 (some centres undefined)                  IC50         nM           1200
5  C[C@@H]1SCc2ncnc(N3CCN(C(=O)C(Cc4ccc(Cl)cc4)CC(C)(C)N)CC3)c21 (some centres undefined)                  IC50         nM            438
6  N[C@H](Cc1ccc(Cl)cc1)C(=O)N1CCN(c2ncnc3c2CS(=O)(=O)C3)CC1                  IC50         nM          21000
7  C[C@@H]1SCc2ncnc(N3CCN(C(=O)C(Cc4ccc(Cl)c(F)c4)CC(C)(C)N)CC3)c21 (some centres undefined)                  IC50         nM            587
8  CC(C)NCC(Cc1ccc(F)c(F)c1)C(=O)N1CCN(c2ncnc3c2[C@H](C)SC3)CC1 (some centres undefined)                  IC50         nM            759
